Test system: L1210 leukemia ip in BDF1 mice, survival T/C
experimentalProtocol: NCI In Vivo Anticancer Drug Screen. Data for tumor model L1210 Leukemia (intraperitoneal) in B6D2F1 (BDF1) mice
studyConditions: endpoint: mean survival time; dose: 50.0 mg/kg/injection; schedule: Q04DX003 (ip); vehicle: Klucel (hydroxypropylcellulose) (HPC); higher = longer survival
Toxic doses and inconclusive results are not listed.
Listing of recorded T/C by entry.

1. CCCCCn1c(Cl)c(C(=O)O)c2ccccc21 | 97 % of control
2. CC1(C)N(C(=S)Nc2ccccc2)C1(C)C | 92 % of control
3. S=C(SSSSC(=S)N1CCCCC1)N1CCCCC1 | 97 % of control
4. CC(C)CCNc1ccc(NCCC(C)C)cc1 | 96 % of control
5. CN(C)/N=N/c1nc[nH]c1C(N)=O | 110 % of control
6. CN(C)/N=C/C=C/c1ccccc1 | 100 % of control
7. CCCCC(=O)C(CCC)C(=O)Nc1ccccc1 (stereo not given) | 98 % of control
8. O=C1c2ccccc2-c2ccc(Br)c3cccc1c23 | 100 % of control

// T/C (L1210 leukemia ip in BDF1 mice, survival T/C) for COc1cc(/C=C(/C)[N+](=O)[O-])ccc1O = 97 % of control

// T/C (L1210 leukemia ip in BDF1 mice, survival T/C) for NC1=Nc2cccc3cccc(c23)N1 = 98 % of control

Sourced from PubChem BioAssay AID248
